Measured values drawn from paper PMC9697446 for this set.

Biological target: NMDA receptor peripheral site ([3H]ifenprodil) (Rattus norvegicus, UniProt P35439+Q00960)
Sequence (Q00960 27-1482, other chains not shown): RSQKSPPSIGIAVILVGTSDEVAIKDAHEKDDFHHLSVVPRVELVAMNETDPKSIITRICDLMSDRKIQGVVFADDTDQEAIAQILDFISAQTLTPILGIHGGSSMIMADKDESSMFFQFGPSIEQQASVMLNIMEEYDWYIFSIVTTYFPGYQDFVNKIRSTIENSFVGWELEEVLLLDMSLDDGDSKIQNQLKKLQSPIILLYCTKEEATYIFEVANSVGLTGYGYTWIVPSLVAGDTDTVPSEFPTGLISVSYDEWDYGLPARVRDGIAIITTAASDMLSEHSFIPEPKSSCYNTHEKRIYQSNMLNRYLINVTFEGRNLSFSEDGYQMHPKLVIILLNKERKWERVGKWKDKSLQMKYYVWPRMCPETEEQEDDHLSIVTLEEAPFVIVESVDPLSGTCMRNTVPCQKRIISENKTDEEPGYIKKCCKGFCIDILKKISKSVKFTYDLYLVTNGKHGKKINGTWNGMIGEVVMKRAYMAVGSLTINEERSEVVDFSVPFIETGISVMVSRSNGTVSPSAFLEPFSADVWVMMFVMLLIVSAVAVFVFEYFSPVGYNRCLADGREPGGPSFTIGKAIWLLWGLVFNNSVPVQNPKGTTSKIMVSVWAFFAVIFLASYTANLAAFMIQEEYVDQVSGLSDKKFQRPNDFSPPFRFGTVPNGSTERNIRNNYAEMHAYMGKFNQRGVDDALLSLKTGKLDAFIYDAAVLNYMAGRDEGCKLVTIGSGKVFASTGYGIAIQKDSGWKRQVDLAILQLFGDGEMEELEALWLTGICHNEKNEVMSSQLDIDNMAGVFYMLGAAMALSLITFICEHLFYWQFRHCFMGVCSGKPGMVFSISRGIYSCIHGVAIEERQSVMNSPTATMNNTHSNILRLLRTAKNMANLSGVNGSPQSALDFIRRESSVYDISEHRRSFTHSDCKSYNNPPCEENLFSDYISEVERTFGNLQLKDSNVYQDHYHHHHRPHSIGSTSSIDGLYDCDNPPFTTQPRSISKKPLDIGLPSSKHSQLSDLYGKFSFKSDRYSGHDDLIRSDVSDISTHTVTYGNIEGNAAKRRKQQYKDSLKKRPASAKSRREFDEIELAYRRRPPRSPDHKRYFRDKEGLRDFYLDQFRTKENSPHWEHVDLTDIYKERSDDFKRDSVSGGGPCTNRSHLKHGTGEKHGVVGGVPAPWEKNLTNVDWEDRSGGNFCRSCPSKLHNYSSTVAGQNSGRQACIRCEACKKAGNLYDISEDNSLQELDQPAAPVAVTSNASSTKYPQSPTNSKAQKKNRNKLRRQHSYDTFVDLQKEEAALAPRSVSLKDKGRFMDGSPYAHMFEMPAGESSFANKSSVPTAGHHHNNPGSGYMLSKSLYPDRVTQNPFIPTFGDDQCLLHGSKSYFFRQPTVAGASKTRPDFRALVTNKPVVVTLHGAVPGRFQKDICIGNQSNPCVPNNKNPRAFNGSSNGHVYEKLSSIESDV
Test: Radioligand binding, [3H]ifenprodil site of the NMDA receptor
READOUT LABEL: pIC50
Quick note: pIC50 means taking -log10 of the concentration in moles per liter.

Ask: Any idea what its pIC50 is? The compound is CC1CCc2c(c3cc(OC(F)(F)F)ccc3n2CCC(=O)N2c3ccc(N(C)C)cc3Sc3cc(N(C)C)ccc32)C1 (centres unmarked) [Compound 4i]
Result: 4.98

Further cases:
Ask: Any idea what its pIC50 is? The compound is CN(C)c1ccc2c(c1)Sc1cc(N(C)C)ccc1N2C(=O)CCn1c2c(c3cc(OC(F)(F)F)ccc31)CCCC2 [Compound 4h]
Result: 4.21
